From: the DeepSol protein solubility set

- assay-remarks: soluble on expression in E. coli; label from the status in PepcDB or PDB records

chain-sequence | soluble on expression in E. coli
MKKISEQKRKHLENLVDDQGIIGALAIDQRGALKRMMGKYKEVTAQEISDFKVLVSRCLTPETSAILLDPEYGLAAAENRAQTSGLLLAYEKTGYDASTPGRLPDSLDVWSVKRLKEAGADACKFLLYYDVDESEAINERKKAYIERIGSECLAEEIPFFLEIVSYDANNSDSASKEYAKVKPHKVIEAMKEFSKDRYNVDVLKVEVPVNMNFVEGFGTESLYSQDEAQAFFNMQSEATQLPFIFLSAGVSATMFQETLKFAKKAGSSFNGVLCGRATWADGVLPFVQQGAEAAVAWLETTGKTNVEELNQVLRESAVSVFEKIQ | not soluble
MREETFPGDIAQYFSVIHRAFLKDTKGEYAKYDLNPTNAYILLYLFFNKNSSQSELAQKLVINKGQITRETTKLLSLNFISKEISSKNRTTNVIAISSDGKKVIKKIIDIRNQWWEEKLKLSGVKTNSEFLDSLKKLESILN | not soluble

====

- assay-remarks: soluble on expression in E. coli; label from the status in PepcDB or PDB records
value-kind: soluble on expression in E. coli

chain-sequence | value-kind | result
MSLKSFFIGNIEIKVPVIQGGMGVGISLSGLASAVANEGGVGVISCAGLGLLYPKEKGTYTEKCISGLKEEIRKSRMKTKGIIGVNVMVALSNYADMVRTAINEKIDVIFSGAGLPLDLPSYLTTGSITKLVPIVSSSRAAKIICDKWQKNYNYLPDAIVVEGPKAGGHLGFKKEQLQDQNYALDVLIPEVVAIAASYKEQKHIPVIAAGGISTGEDIAHFMELGASGVQMGSIFVTTLECDASETFKEVYIHSKSEDVLIIESPVGMPGRAIDGEFIHSVNNGLEKPRKCSFHCIKTCDYTKSPYCIIKALYNAAKGNMKKGYAFAGSNAFLADKISSVKEVMNTLEREFFLATHKLVEGHHHHHH | soluble on expression in E. coli | not soluble
MENKTLDHTLQGAPLWLTNFVLVYQKLSKENLQLLATIYHENVTFIDPLHTVEGFDDLYQYFENLYQNLSACDFVIEEVIWQDSQASLFWTMTYQHPKLNKGKMVTVVGTSHIKGEGDKVIYHRDFLDLGAMLYEQLPILGKLTKWIKTKAAN | soluble on expression in E. coli | not soluble
MRVGLVHGFLSRRYLDFWRAYLEALGVEVVEAAPPPSDLPFCLPVQRLLAQVEALKEAGVDYLLLPDLQGGVESERGGGQCPWLLDLEAALLRYFPGLPPVLKVPAELSERVLGRAGEVGQLLVRNPMLVGRALDRTRRLLKPPPPLPTPQGSVGVVAQPYLLEEPAFRREVEAALRAHGLEAYFPDLPPERLREEADRLLPVDLPTDRELVGAIHYLGRLGRVKGLALVVSYACPPIPGLMRKAARRLGKPYRLLTLGEDWQEPLAALKAEMEKGNRGG | soluble on expression in E. coli | soluble
MTTFRQHRWQSFLQGYEQRARILISCPDRPGIVAAVTSFLYEQGANIVESSQYSTDPEGGTFFLRLEFDCPNIAERKEEIEAAFAPIAAEFEMRWQLRLHNDIRRIAIFVSKAEHCLLELLWQWQAGELIADIALVISNHPDLRETVESFGIPYVHIPVTKETKADAEAEQIRLLRDYQIDTIVLARYMQILSPAFVAEFSGRIINIHHSFLPAFIGARPYERAYERGVKLIGATSHYVTDDLDEGPIIEQDVARVDHRHHPDDLKRIGRLIEKTVLARALRWHLEDRVIIHGNKTIVFY | soluble on expression in E. coli | soluble
MSLSILVTGATGTIGSLVTQGLASAGADVKAMVRQPGKRDFPAGVTEVVADLTDVSSMRVALSSVRTLFLLNAVTPDEVTQALIALNLAQEAGIERIVYLSVIHADTFTNVPHFTGKYTVERMIESLDIPATILRPAYFMQNDLMVQQTIQSYSVYPMPIGSAGVSMIDARDIADVAVAELLRRDEASSALDLVTLELVGPQALTGASVAQTWSSALDREIAYGGDDVAAFEGQLASYGPGWLAYDMRLMMAGIQKFGMQAAEGAVERLEAIIGHPLRSYEGFVREATAGEGHHHHHH | soluble on expression in E. coli | soluble
MGSDKIHHHHHHMTSKLAAVSHIEKIALGLRDQAHAVIKNILMMSDIPTQELQHAMKQLSHQGRVALHFHPDRIDNRGLTVVQGLLRDGIYKSQFETHISNGQLSPELGGPRDHWENQLFGNSYSGIKSRPKYGALDLGLCPLGPAPRFGSCYFLTHSQVLSRCTFSYMDSYRLPKEKGTLSCFDAILAALLSESFERCYALGRQPFKPRDIMAHMACEAKSSVAARFELPGLGNLDHYIEAQIHGDVSLADDIGYLVADPSFKGTETEEYFNQLCSDYQINLHWHNGLTLACDKVPTDFRGAAMPVLAKQIAIDEVIDAKTVGAEAARLQKQPSSWSERGSQAKKTQELKLLWHVLVRFGKPREDNFDNH | soluble on expression in E. coli | not soluble
MDANEFHWLMDMLESVEVGLVVLDLDFHVQAWNGFMEHHSGITARQIRDKVLFEVFPDIPEAWLTRKVDAVAMLNTRAFTSWEQRPYLFKFRNTRPITGTEEYMFQNLTISPITAPNGEVEKVCLLVYDVTEFASSKRALERANEQLAKLSMTDRLTGLLNRGTWENLVDAEYERFRRYGQATSLVMFDIDHFKPVNDTYGHLAGDEVIRHTADVTRNNIRQSDSAGRYGGEEFGIILPETDAESARVICERIREAIEKSTVSTSAGDIQYTVSMGIAQLTETPENYMQWMQKADEALYKAKESGRNKVVVSLEHHHHHH | soluble on expression in E. coli | soluble
MGSDKIHHHHHHMKNRAGEYRTNLTGELQYRSFLPYPLPPSPPIELDEETIKLLAKANRSIGILEGMSRQIPDIDLFVSMYVRKEALLSSQIEGTQVTLDDILDPNIEENTNQNVADVINYIKASHYGSARLAELPLCNRLLKEIHEILMQDVRGGEKSPGEFRSSQNWIGPAGSTLRDARYIPPHPEDMLEAMSDLEKFINSEDELDPLIKIALIHYQFETIHPFLDGNGRIGRLLIALYLINQNLLSHETLYISYFLKRNRIEYYDRLTEVRSKGNFEQWLKFFLLAAYESAQDAIDTIERILKLHYKNVEVVKNTGKASKTVMKVFNYLESSPIIDIKKTSLALELSFNTVSNAVNKLVELGILKQTENVRRSRVFAYEEYLEILRKDT | soluble on expression in E. coli | not soluble
MGSDKIHHHHHHMNTLASIQELARAIRNMIRTGIVVETDLDAGRCRVQTGGIYTDWLQWLTHRAGRSRTWWAPSIGEQVMILAVGGELDTAFVLPGIYSDDNPAPSASADAWHVEFPDGAVMSYEPETGALTVTGIKTADVTASDSVAVSVPVVLVKAETRVTLDTPEVVCTNKLTTGTLEVKQGGKMSGDIEHSGGAFTSNGVQVDKHGHGGIRRGDEWTEGTQ | soluble on expression in E. coli | not soluble
MGSDKIHHHHHHMIVTEYELLVCLAEELNMRKSAEKLFLSQPALSQRLQTIESRWNTKIFIRTQKGLLLTPEGEAIVRHASSVIEREHTIQEKLEAMEGVVRGTLRIACASVVAQMWLPRVLKAFSRTYPNVQISLVTGWSSEVTQQLAAGNVHIGIVRGSSTWKSVQKPLFNDKLILVDTEITKIEEVFQTNRPFIQFRSDSNYYQVIQDYWQRNFGKMPRQAMLMDQMETSRQMALNGIGFAILPEVTMIGYTDKINKIPLTEKDGSILSRETNLLTYEQSLSLPQVKAFLEITDKFLEQVK | soluble on expression in E. coli | not soluble

====

- assay-remarks: soluble on expression in E. coli; label from the status in PepcDB or PDB records

chain-sequence | soluble on expression in E. coli
GSHMAPGFTISFVNKTIIVTGGNRGIGLAFTRAVAAAGANVAVIYRSAADAVEVTEKVGKEFGVKTKAYQCDVSNTDIVTKTIQQIDADLGPISGLIANAGVSVVKPATELTHEDFAFVYDVNVFGVFNTCRAVAKLWLQKQQKGSIVVTSSMSSQIINQSSLNGSLTQVFYNSSKAACSNLVKGLAAEWASAGIRVNALSPGYVNTDQTAHMDKKIRDHQASNIPLNRFAQPEEMTGQAILLLSDHATYMTGGEYFIDGGQLIW | soluble
MSLKVFLKKGKEKKVKHFYPWVFRDEVEKIEGEGIVAELYDSEGNFLALGTYSPYSRIAFRVLSYEREEVNEEFFKRRLRESELLRRDIPSNAYRLAFSESDLLSGLIIDRYGDAFVIQVRSYPMEILKEKVLKTLVEEFNPAFVYERSDFKGRREEGLKEFKGLLYGKLENPLIIEEREFKFLVDVVEGLKTGFYLDQRDNREYVRNLVKEGDRVLDLFCYSGGFSVYCANRGAKVVGVDINKRAVELARENAKLNSVKADFVLGNAFDFIQESKEEWDLIIADPPAIAKTKKEKESILWAIWKLAYYSFQKLKKGGSLFICSCTYQISSEEMIRQVRLASTDVKRRIIIKSLNLQPIDHPYLPTFPESLYLKCLHAIVIDEGHHHHHH | soluble
